FYI, the data here is from patent US10065970B2.

Target Or Test System: PI3Kα (alpha) (Homo sapiens (Human), UniProt P42336)
Sequence (P42336 whole entry): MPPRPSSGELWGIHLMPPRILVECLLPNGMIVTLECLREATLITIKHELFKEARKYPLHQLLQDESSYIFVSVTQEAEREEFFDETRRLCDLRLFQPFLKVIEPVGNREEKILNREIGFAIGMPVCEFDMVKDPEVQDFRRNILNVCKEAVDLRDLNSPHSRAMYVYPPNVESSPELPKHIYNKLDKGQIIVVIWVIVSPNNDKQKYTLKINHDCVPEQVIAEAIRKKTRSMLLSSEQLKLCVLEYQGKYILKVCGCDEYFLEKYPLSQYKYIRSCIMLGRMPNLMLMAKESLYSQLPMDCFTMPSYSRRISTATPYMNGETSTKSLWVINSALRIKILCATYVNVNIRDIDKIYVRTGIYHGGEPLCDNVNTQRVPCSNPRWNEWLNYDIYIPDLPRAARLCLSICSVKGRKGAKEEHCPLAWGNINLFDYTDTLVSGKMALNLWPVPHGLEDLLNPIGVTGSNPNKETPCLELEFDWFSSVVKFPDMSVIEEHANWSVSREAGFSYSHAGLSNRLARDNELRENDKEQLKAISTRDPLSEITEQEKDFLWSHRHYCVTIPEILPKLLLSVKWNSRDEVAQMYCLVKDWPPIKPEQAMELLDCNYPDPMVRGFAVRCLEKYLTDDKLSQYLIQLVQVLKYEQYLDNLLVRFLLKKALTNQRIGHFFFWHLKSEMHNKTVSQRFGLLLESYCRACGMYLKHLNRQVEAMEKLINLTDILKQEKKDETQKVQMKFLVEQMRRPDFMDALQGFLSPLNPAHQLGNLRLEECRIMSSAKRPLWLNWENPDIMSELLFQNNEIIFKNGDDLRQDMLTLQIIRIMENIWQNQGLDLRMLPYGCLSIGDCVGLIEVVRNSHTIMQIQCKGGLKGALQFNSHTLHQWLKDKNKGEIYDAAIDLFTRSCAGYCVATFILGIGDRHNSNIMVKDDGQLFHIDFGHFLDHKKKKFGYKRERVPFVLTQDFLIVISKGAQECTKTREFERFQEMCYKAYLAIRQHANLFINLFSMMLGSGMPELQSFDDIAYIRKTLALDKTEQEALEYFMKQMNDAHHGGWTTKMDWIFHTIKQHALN
Sequence (P27986 whole entry partner): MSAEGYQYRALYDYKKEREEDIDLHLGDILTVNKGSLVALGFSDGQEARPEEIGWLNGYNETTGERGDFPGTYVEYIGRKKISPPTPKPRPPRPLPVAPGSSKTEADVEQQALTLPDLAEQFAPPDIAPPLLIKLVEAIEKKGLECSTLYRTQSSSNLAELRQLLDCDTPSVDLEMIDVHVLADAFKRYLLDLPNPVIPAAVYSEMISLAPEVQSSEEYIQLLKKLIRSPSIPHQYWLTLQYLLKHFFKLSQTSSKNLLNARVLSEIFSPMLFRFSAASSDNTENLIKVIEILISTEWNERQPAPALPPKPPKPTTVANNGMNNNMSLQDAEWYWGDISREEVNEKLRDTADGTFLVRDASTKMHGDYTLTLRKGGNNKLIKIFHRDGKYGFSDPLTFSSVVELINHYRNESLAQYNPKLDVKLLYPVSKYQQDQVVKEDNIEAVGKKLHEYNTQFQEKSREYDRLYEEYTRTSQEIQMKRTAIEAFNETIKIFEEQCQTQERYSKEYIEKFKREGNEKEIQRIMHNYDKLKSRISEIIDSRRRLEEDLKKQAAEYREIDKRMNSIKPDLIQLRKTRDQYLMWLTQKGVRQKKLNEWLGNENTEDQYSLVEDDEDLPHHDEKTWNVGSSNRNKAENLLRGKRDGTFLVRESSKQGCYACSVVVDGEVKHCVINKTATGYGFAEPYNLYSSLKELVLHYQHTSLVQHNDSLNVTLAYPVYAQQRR
Procedure Text: p110α (alpha) PI3K Binding Assay (ADP-Glo lipid kinase reaction)
Type: biochemical
Experimental Context: PI3K alpha 0.2 nM, ATP 40 μM, PIP2:3PS 50 μM, 120 min, room temperature; Ki by Morrison Equation; read-out: PI3Kα-(alpha) ATP (Ki) micromolar
pKi: −log10 of the molar value.
The label depends only on pKi: y if it is at least 7, n if it is smaller.

Check if pKi >= 7 (inclusive). Item: NC(=O)[C@@H]1COCCN1c1cc2c3c(c1)nc(-c1ccc4nc(N)sc4c1)n3CCCCO2
y

Quick check, pKi >= 7? C[C@H](Oc1cc2c3c(c1)nc(-c1ccc4oc(N)nc4c1)n3CCCCO2)C(=O)O
y

Hello, I need to know if COc1ccc(-n2nc3cc(N[C@H](C(N)=O)C4CC4)cc4c3c2CCCO4)cn1 has measured pKi not below 7. Thanks!
y

Given the entry NC(=O)[C@@H](Nc1cc2c3c(c1)nc(-c1ccc4nc(N)ncc4c1)n3CCCO2)C1CC1 , answer whether its pKi meets or surpasses 7.
y

Check this molecule for pKi at or above 7: CC[C@H](Oc1cc2c3c(c1)nc(-c1ccc(-c4nc[nH]n4)cc1)n3CCCCO2)C(N)=O (single isomer, unassigned)
y

Then there is this molecule:
Test whether the molecule NC(=O)[C@@H](Nc1cc2c3c(c1)nc(-c1ccc4c(c1)OC(F)(F)O4)n3CCCO2)C1CC1 records pKi of 7 or higher.
n

###

Target Or Test System: PI3Kα (alpha) (Homo sapiens (Human), UniProt P42336)
Procedure Text: p110α (alpha) PI3K Binding Assay (ADP-Glo lipid kinase reaction)
Assay type: biochemical
Experimental Context: PI3K alpha 0.2 nM, ATP 40 μM, PIP2:3PS 50 μM, 120 min, room temperature; Ki by Morrison Equation; read-out: PI3Kα-(alpha) ATP (Ki) micromolar
Readout: pKi
Convention used: pKi is expressed as -log10 of the molar concentration.

Supply pKi value. Item: NC(=O)[C@@H](Nc1cc2c3c(c1)nc(-c1ccc4nc(N)sc4c1)n3CCCO2)C1CC1
9.21

Tell us which pKi value is on record for Nc1nc2cc(-c3nc4cc(-c5cnn(CCO)c5)cc5c4n3CCCO5)ccc2o1
9.20

Assign pKi to the following record: NC(=O)[C@@H](Nc1cc2c3c(c1)nc(-c1ccc4ncncc4c1)n3CCCO2)C1CC1
6.67

Continuing:
Assign pKi to the following record: COc1ccc(-c2nc3cc(N[C@H](C(N)=O)C4CC4)cc4c3n2CCCO4)c(F)c1
6.47

Tell us which pKi value is on record for C[C@H](Nc1cc2c3c(c1)nc(-c1ccncn1)n3CCCO2)C(N)=O
7.61

Please indicate pKi recorded for C[C@H](Oc1cc2c3c(c1)nc(-c1ccc4nc(N)sc4c1F)n3CCCCO2)C(N)=O (single isomer, unassigned)
10.14

Dear colleague, please send me the reported pKi for Nc1nc2cc(-c3nc4cc(N[C@H]5C[C@H](F)C5)cc5c4n3CCCO5)ccc2o1 (single isomer, unassigned) when you can.
9.25

###

Target Or Test System: PI3Kα (alpha) (Homo sapiens (Human), UniProt P42336)
Procedure Text: p110α (alpha) PI3K Binding Assay (ADP-Glo lipid kinase reaction)
Type: biochemical
Experimental Context: PI3K alpha 0.2 nM, ATP 40 μM, PIP2:3PS 50 μM, 120 min, room temperature; Ki by Morrison Equation; read-out: PI3Kα-(alpha) ATP (Ki) micromolar
Readout: Ki (nM)
Numbers only here, please. The scale is nM.

Return Ki for the following compound: CO[C@@H]1CCN(c2cc3c4c(c2)nc(-c2ccc5oc(N)nc5c2)n4CCCCO3)[C@@H]1C(N)=O
0.171

Retrieve Ki measured for C[C@@H](Oc1cc2c3c(c1)nc(-c1cc(F)c4oc(N)nc4c1)n3CCCO2)C(N)=O and print it.
0.346

Output Ki of Cc1ccncc1-c1nc2cc(N[C@H](C(N)=O)C3CC3)cc3c2n1CCCO3
296

Using the record for C[C@H]1CCN(c2cc3c4c(c2)nc(-c2ccc5oc(N)nc5c2)n4CCCCO3)[C@@H]1C(N)=O , state its measured Ki.
0.04

Find the measured Ki of CNc1nc2cc(-c3nc4cc(N[C@@H](C)C(N)=O)cc5c4n3CCCO5)ccc2o1 and report it.
2.01

***
Return value of Ki for input C[C@H](Oc1cc2c3c(c1)nc(-c1ccc4sc(N)nc4c1)n3CCCCO2)C(N)=O (single isomer, unassigned) , no commentary.
0.113

Answer with the recorded Ki for the compound listed here: C[C@H](Nc1cc2c3c(c1)nc(N1CCC(CO)CC1)n3CCCO2)C(N)=O
681

State, in one line, measured Ki of NC(=O)[C@H](Oc1cc2c3c(c1)nc(-c1cc(F)c4nc(N)sc4c1)n3CCCCO2)C1CC1 (single isomer, unassigned)
1.02

Give Ki for the following compound: CC[C@@H](C(N)=O)n1cc(-c2cc3c4c(c2)nc(-c2ccc5oc(N)nc5c2)n4CCCO3)cn1
0.298

Tell me Ki reported for NC(=O)[C@@H](Nc1cc2c3c(c1)nc(-c1cncnc1)n3CCCO2)C1CC1
242

Hello, please tell me recorded Ki for this one: NC(=O)[C@@H](Nc1cc2c3c(c1)nc(-c1cncs1)n3CCCO2)C1CC1
76.4

Query Ki for C[C@H](Oc1cc2c3c(c1)nc(-c1ccc4nc(N)sc4c1)n3CCCCO2)C(N)=O
0.03

Report Ki, nothing else, for this compound: NC(=O)c1cc(-c2nc3cc(N[C@H](C(N)=O)C4CC4)cc4c3n2CCCO4)ccc1F
16.5

Annotate the compound C[C@@H](Oc1cc2c3c(c1)nc(-c1ccc4nc(N)sc4c1F)n3CCCCO2)C(N)=O (single isomer, unassigned) with its measured Ki.
1.71

Return Ki (reported value) for this compound: Cc1nc2nc(-c3nc4cc(Br)cc5c4n3CCCO5)ccc2o1
322

###

Target Or Test System: PI3Kα (alpha) (Homo sapiens (Human), UniProt P42336)
Procedure Text: p110α (alpha) PI3K Binding Assay (ADP-Glo lipid kinase reaction)
Format: biochemical
Experimental Context: PI3K alpha 0.2 nM, ATP 40 μM, PIP2:3PS 50 μM, 120 min, room temperature; Ki by Morrison Equation; read-out: PI3Kα-(alpha) ATP (Ki) micromolar
Reported pKi by item:
In plain terms, pKi is the concentration in mol/L turned into minus its base-10 logarithm.

Provide pKi, system PI3Kα (alpha) (Homo sapiens (Human), UniProt P42336), entry COC[C@@](C)(C(N)=O)n1cc(-c2cc3c4c(c2)nc(-c2ccc5oc(N)nc5c2)n4CCCO3)cn1 (single isomer, unassigned)
9.92

Kindly consider the entry below.
Would you please give the reported pKi of NC(=O)[C@@H](Nc1cc2c3c(c1)nc(-c1ccc4[nH]ncc4c1)n3CCCO2)C1CC1 with PI3Kα (alpha) (Homo sapiens (Human), UniProt P42336)?
7.36

###

Target Or Test System: PI3Kα (alpha) (Homo sapiens (Human), UniProt P42336)
Procedure Text: p110α (alpha) PI3K Binding Assay (ADP-Glo lipid kinase reaction)
Type: biochemical
Experimental Context: PI3K alpha 0.2 nM, ATP 40 μM, PIP2:3PS 50 μM, 120 min, room temperature; Ki by Morrison Equation; read-out: PI3Kα-(alpha) ATP (Ki) micromolar
Ki vs 1 nM: less than gives YES; not less than gives NO.

These solved cases illustrate the format of a correct answer.
Bench note: check whether NC(=O)[C@H](Oc1cc2c3c(c1)nc(-c1ccc(-c4ncn[nH]4)c(F)c1)n3CCCCO2)C1CC1 (single isomer, unassigned) shows Ki below 1 nM
YES

Answer whether the compound NC(=O)[C@@H](Nc1cc2c3c(c1)nc(-c1ccc4nccnc4c1)n3CCCO2)C1CC1 has Ki strictly less than 1 nM
NO

---
Given the entry NC(=O)[C@@H](Nc1cc2c3c(c1)nc(-c1ccc4oc(N)nc4c1)n3CCCO2)C1CC1 , would its reported Ki be below 1 nM?
YES

Is 1 nM strictly greater than the compound's reported Ki? compound: C[C@@H](Oc1cc2c3c(c1)nc(-c1ccc4sc(N)nc4c1)n3CCCCO2)C(N)=O (single isomer, unassigned)
YES

I wonder whether CC[C@H](Oc1cc2c3c(c1)nc(-c1ccc4oc(N)nc4c1)n3CCCCO2)C(=O)O has Ki below 1 nM. Can you tell?
NO

Dear reviewer, please state whether CC[C@@H](Oc1cc2c3c(c1)nc(-c1ccc(-c4nc[nH]n4)cc1)n3CCCCO2)C(N)=O (single isomer, unassigned) has Ki strictly beneath 1 nM.
NO

Below 1 nM on Ki? Entry NC(=O)[C@@H](Nc1cc2c3c(c1)nc(-c1ccn4ncnc4n1)n3CCCO2)C1CC1
YES
